- System Tested: GABA-A receptor; anion channel (Bos taurus) (UniProt P10063+P08220+P20237+P08219+P10064+P22300)
- Procedure Text: Inhibition of [35S]-TBPS binding to GABA-A central Benzodiazepine Receptor of bovine cerebral cortex membranes
- Assay type: tissue-based
- Design: concentration or dose not given beside the values
- Condition: concentration not given here
Label scheme for inhibition: lower than 20% is no (0), 20% and above is yes (1).

# example entries with known answers
| Smiles Input | Category Label |
| --- | --- |
| Oc1c(-c2ccco2)nnc2nc3ccccc3n12 | yes (1) |
| Cn1c2ccccc2n2c(=O)c(-c3ccccc3)nnc12 | yes (1) |
| Oc1c(-c2ccccc2)nnc2nc3ccccc3n12 | yes (1) |
| Oc1ccc(-c2nnc3nc4ccccc4n3c2O)cc1 | no (0) |
| O=C1CN=C(c2ccccc2Cl)c2cc([N+](=O)[O-])ccc2N1 | yes (1) |
| COc1ccc(-c2nnc3nc4ccccc4n3c2O)cc1 | no (0) |

Incoming: Does the molecule CCOC(=O)c1ncn2c1CN(C)C(=O)c1cc(F)ccc1-2 have recorded inhibition that is 20% or more?
Outgoing: no (0)

Where do these numbers come from? They come from ChEMBL document CHEMBL1133176.
